- systemName: recombinant human PARP (Homo sapiens, UniProt P09874)
- Sequence (P09874 whole entry): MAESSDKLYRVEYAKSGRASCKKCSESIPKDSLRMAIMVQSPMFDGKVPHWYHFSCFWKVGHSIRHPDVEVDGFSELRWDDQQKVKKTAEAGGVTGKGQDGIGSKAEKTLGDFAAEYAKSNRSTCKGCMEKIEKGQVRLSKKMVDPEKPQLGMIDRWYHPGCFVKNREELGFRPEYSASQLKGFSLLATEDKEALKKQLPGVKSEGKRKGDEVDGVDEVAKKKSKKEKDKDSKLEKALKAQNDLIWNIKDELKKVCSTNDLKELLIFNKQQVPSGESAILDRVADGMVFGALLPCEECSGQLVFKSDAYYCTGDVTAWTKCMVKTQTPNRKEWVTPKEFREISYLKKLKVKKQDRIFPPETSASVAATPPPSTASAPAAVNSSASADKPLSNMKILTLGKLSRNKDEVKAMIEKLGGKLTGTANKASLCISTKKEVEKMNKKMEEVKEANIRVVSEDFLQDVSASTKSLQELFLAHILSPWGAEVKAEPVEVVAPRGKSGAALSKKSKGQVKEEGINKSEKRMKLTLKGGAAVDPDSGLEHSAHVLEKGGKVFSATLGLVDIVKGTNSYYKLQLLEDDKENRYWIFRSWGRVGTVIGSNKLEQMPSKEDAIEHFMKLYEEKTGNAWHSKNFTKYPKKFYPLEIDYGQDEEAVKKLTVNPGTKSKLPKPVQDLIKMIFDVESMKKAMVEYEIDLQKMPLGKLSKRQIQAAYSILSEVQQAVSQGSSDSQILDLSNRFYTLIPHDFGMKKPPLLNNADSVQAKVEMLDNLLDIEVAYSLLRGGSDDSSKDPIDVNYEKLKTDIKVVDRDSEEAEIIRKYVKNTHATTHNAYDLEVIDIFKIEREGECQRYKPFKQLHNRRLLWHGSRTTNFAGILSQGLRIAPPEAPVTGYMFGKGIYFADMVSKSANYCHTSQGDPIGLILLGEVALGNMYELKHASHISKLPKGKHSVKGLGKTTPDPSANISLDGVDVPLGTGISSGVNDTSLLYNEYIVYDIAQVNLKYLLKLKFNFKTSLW
- measurementNotes: PARP activity: transfer of radiolabeled ADP-ribose units from [32P]NAD+ to a protein acceptor
- experimentalConditions: Table 3
readoutName: pIC50
Please treat pIC50 as minus the base-10 logarithm of the molar concentration.

Consider the molecule NCCCCC(N)C(=O)N1C(=O)c2c3c(c4[nH]c5ccc(Br)cc5c4c2C1=O)CCC3 (stereo not shown) and give its measured pIC50.
7.16
